Hello, the source for this data is the SangsterLogP compilation, in case you need it.

This listing pairs molecules with measured logP.
Answer with a bare number; do not write a unit.

O=C(Nc1ccccc1)C12CC(CO1)C2 :: 1.54
O=C(c1ccccc1)N1CCC1CF (stereo not drawn) :: 1.4
O=C(c1ccccc1)N1CCC(C(F)F)C1 (stereo not drawn) :: 1.4
O=C(c1ccccc1)N1CCC1C(F)F (stereo not drawn) :: 1.51
O=C(NC1CC2(CCC2)C1)c1ccccc1 :: 3.26

Give the measured logP for O=C(c1ccccc1)N1CCCCC1
1.39

Report logP for O=C(Nc1ccccc1)[C@H]1C[C@@H](CF)C1
1.96

// fetch logP given entry O=C(Nc1ccccc1)[C@@H]1C[C@@H]2[C@H](C1)C2(F)F
2.88

Provide logP value for the following molecule: O=C(c1ccccc1)N1CC[C@@H](F)[C@H](F)C1
1.26

Recall and state the measured logP for O=C(N[C@H]1C[C@@H](C(F)(F)F)C1)c1ccccc1 .
2.62

Give logP for the following molecule: O=C(NCCCC(F)F)c1ccccc1
1.76

Identify the reported logP for the following entry. O=C(Nc1ccccc1)[C@H]1C[C@@H]2C[C@@H]2C1
2.87

Report logP, nothing else, for this molecule: O=C(N[C@H]1C[C@@H](CF)C1)c1ccccc1
1.77

====

// logP lookup, one value per entry
API note: the answer field is a bare number with no unit suffix.

Record excerpt, results attached:
O=C(NC1CCCC1)c1ccccc1 :: 2.23
O=C(c1ccccc1)N1CCCC(CF)C1 (configuration not stated) :: 1.52
O=C(Nc1ccccc1)[C@H]1C[C@H](C(F)(F)F)C1 :: 3.02
O=C(NC1CCCCCC1)c1ccccc1 :: 3.03
O=C(N[C@@H]1C[C@@H]1CF)c1ccccc1 :: 1.12
O=C(NC1CCCC1(F)F)c1ccccc1 (configuration not stated) :: 1.87

Give me measured logP, please, for this compound: O=C(N[C@H]1C[C@H](C(F)(F)F)C1)c1ccccc1
2.82

====

Measured logP of individual entries
Number only, please.

Known results for compounds:
O=C(NC1CC12CC2)c1ccccc1 (centres undefined) :: 2.08
O=C(c1ccccc1)N1CC2CCCC(C2)C1 :: 2.36
O=C(Nc1ccccc1)C1CCCCC1(F)F (centres undefined) :: 2.5
O=C(c1ccccc1)N1CCCCC1C(F)F (centres undefined) :: 2.04
O=C(Nc1ccccc1)C1(CF)CCC1 :: 1.88

Identify measured logP corresponding to O=C(Nc1ccccc1)C1CCC(F)(F)CC1
2.63

Determine from records and report logP for O=C(Nc1ccccc1)C1CC1(F)F (centres undefined)
2.07

Find the measured logP of CC12CCCC(CN1C(=O)c1ccccc1)C2 (centres undefined) and report it.
2.41

Please give the documented logP of O=C(c1ccccc1)N1CC(CF)C1
0.93

====

Reported logP values for a set of compounds
Output spec: single numeric token, no unit.

Example compounds with recorded logP:
O=C(Nc1ccccc1)C1CC12CC2(F)F (stereo not given) :: 2.66
O=C(Nc1ccccc1)[C@H]1C[C@@H](C(F)F)C1 :: 2.23
O=C(Nc1ccccc1)[C@@H]1C[C@H]1CF :: 1.12
O=C(c1ccccc1)N1CC2CCC(C1)C2(F)F :: 2.09

Kindly consider the entry below.
Find the measured logP of O=C(NC1(C(F)F)CCC1)c1ccccc1 and report it.
2.48

====

READOUT: logP
Lab note: record just the number, no unit beside it.

O=C(Nc1ccccc1)[C@@H]1CC[C@H]1CF :: 2.11
O=C(Nc1ccccc1)[C@@H]1CC[C@@H]1F :: 1.74
O=C(c1ccccc1)N1CC2CCC(C2)C1 :: 2.31

Here is another compound to look at.
Let me know recorded logP for O=C(NCCCC(F)(F)F)c1ccccc1 , thanks.
2.28
